The reported numbers originate from ChEMBL document CHEMBL1201862.

System: UACC-62
assaySummary: NCI tumour cell line growth inhibition, 48 h
The source made the active and inactive calls. No stated cut-off is given here; in the data, active = GI50 up to about 1.1 µM and inactive = higher.
Pick one: active, inactive

# molecule, testedOn, classAssignment
rows = [
    ("CCN1CCN(c2nc3ccc([N+](=O)[O-])cc3nc2C(=O)c2ccccc2)CC1", "UACC-62", "inactive"),
]

Prompt: // return assay outcome for CC(=O)OC1[C@@H](OC(C)=O)CN(OCc2ccccc2)C[C@H]1OC(C)=O (some centres not stated)
Response: inactive

Prompt: // return assay outcome for "COC(=O)c1cnn2c1ccc1ccccc12"
Response: inactive

Prompt: // return assay outcome for "O=C1CCCNn2c(nc3ncccc3c2=O)N1"
Response: inactive

Prompt: // return assay outcome for CCCCNC1CCC2(SCCS2)c2[nH]c3ccccc3c21 (configuration not stated)
Response: inactive

Prompt: // return assay outcome for CC1CC(N2CCOCC2)=Nc2ccccc2N1C (configuration not stated)
Response: inactive

Prompt: // return assay outcome for "CC[C@@]1(O)C(=O)OCc2c1cc1n(c2=O)Cc2c-1nc1ccccc1c2/C=N\NC(=O)CN"
Response: active

Prompt: // return assay outcome for "C[N+]1(C)C/C(=C\c2ccc(O)cc2)C(=O)/C(=C/c2ccc(O)cc2)C1"
Response: inactive

Prompt: // return assay outcome for "c1ccc(CSc2nnc3c4ccccc4c4ccccc4c3n2)cc1"
Response: inactive

Prompt: // return assay outcome for Cc1cc(=O)oc2cc(OCC(O)COC(C)C)ccc12 (configuration not stated)
Response: inactive

Prompt: // return assay outcome for "CN1CN(c2ccccc2)C2(CCN(Cc3csc4ccccc34)CC2)C1=O"
Response: inactive
